- target-under-test: E. coli MTAN (Escherichia coli)
- Sequence (P0AF12 whole entry): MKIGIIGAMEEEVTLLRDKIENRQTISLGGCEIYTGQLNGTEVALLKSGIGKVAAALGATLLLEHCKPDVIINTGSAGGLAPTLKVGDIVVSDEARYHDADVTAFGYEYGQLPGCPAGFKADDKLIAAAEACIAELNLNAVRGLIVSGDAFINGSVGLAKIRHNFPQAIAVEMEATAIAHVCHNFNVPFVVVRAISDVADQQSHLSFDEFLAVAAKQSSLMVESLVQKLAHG
- experiment-notes: Inhibition of E. coli MTAN, xanthine oxidase-coupled enzyme assay
- Format: biochemical
- particulars: Km of MTA over Ki of the inhibitor
Reported Km/Ki ratio for E. coli MTAN values follow for various compounds

compound: C=C[C@H]1CN(Cc2c[nH]c3c(N)ncnc23)C[C@@H]1O (racemic) [(±)-40]
target-under-test: E. coli MTAN (Escherichia coli)
Km/Ki ratio for E. coli MTAN: 662

compound: Nc1ncnc2c(CN3C[C@H](CCCSCc4ccccc4)[C@@H](O)C3)c[nH]c12 (racemic) [(±)-57]
target-under-test: E. coli MTAN (Escherichia coli)
Km/Ki ratio for E. coli MTAN: 7963

compound: C=CC[C@H]1CN(Cc2c[nH]c3c(N)ncnc23)C[C@@H]1O (racemic) [(±)-41]
target-under-test: E. coli MTAN (Escherichia coli)
Km/Ki ratio for E. coli MTAN: 1228

compound: CC[C@H]1CN(Cc2c[nH]c3c(N)ncnc23)C[C@@H]1O (racemic) [(±)-28]
target-under-test: E. coli MTAN (Escherichia coli)
Km/Ki ratio for E. coli MTAN: 512
